Molecular target: HDAC10 (Homo sapiens)
Sequence (Q969S8 whole entry, canonical isoform): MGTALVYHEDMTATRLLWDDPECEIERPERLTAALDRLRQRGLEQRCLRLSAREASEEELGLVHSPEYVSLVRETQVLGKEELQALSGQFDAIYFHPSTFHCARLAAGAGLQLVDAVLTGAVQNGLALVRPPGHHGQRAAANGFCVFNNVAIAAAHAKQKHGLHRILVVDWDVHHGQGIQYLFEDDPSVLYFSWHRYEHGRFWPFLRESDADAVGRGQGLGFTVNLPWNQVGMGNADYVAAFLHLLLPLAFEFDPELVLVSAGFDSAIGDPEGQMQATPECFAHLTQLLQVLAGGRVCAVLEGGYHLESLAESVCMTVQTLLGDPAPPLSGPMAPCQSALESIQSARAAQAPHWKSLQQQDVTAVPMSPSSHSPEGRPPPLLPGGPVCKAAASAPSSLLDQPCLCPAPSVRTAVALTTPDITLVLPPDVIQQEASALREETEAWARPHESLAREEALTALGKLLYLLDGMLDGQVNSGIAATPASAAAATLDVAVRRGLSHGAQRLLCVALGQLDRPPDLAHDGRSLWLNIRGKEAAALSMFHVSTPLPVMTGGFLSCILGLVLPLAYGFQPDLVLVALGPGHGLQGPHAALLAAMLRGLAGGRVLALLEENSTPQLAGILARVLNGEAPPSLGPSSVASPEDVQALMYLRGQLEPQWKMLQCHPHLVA
Test: HDAC isoform inhibitory activity
endpoint.name: pIC50
Please treat pIC50 as minus the base-10 logarithm of the molar concentration.

So for COc1ccc(C[C@H]2COC(=O)[C@@H]2Cc2ccc(OCC(=O)Nc3ccc(C(=O)Nc4ccccc4N)cc3)c(OC)c2)cc1OC , the logged pIC50 turned out to be 5.76

* * *

Target: HDAC2 (Homo sapiens, UniProt Q92769)
Sequence (Q92769 whole entry, canonical isoform): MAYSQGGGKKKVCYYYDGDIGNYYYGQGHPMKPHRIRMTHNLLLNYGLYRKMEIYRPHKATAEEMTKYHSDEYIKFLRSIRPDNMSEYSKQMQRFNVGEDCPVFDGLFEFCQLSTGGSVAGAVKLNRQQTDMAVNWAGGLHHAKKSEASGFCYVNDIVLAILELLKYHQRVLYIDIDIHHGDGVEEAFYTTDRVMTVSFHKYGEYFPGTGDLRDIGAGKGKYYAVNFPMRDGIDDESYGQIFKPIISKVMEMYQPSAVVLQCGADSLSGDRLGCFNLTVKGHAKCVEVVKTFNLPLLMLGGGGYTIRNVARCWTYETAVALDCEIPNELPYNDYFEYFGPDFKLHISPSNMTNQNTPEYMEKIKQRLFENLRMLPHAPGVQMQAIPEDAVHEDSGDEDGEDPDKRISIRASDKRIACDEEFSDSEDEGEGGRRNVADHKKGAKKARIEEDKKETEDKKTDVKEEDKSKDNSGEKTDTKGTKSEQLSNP
Experiment: HDAC isoform inhibitory activity
endpoint.name: IC50 (nM)
Just the number please, in nM, no unit attached.

So for COc1ccc(C[C@H]2COC(=O)[C@@H]2Cc2ccc(OCC(=O)Nc3ccc(C(=O)Nc4ccccc4N)cc3)c(OC)c2)cc1OC [B7] , the logged IC50 turned out to be 131

* * *

Molecular target: HDAC1 (Homo sapiens)
Sequence (Q13547 whole entry, canonical isoform): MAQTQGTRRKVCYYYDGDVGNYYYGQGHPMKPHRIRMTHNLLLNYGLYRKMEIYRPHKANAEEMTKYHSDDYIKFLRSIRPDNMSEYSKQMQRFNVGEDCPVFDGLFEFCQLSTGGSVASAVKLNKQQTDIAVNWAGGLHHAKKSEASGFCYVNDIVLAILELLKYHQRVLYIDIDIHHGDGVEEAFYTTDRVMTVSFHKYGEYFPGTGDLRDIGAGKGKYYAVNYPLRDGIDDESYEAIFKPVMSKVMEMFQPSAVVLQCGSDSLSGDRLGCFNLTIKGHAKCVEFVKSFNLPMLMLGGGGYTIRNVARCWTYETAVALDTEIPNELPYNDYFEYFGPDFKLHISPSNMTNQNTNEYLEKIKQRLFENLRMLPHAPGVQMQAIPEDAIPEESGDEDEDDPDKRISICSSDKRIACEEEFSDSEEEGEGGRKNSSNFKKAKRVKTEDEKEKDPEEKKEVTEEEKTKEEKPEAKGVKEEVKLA
Assay: HDAC isoform inhibitory activity
endpoint.name: pIC50
Please treat pIC50 as minus the base-10 logarithm of the molar concentration.

With HDAC1 (Homo sapiens) as the test system, COc1ccc(C[C@H]2COC(=O)[C@@H]2Cc2ccc(OCC(=O)Nc3ccc(C(=O)Nc4ccccc4N)cc3)c(OC)c2)cc1OC showed pIC50 of 6.58

# credit: paper PMC10951978
